Can you tell me melting point for the items I'm about to list?

Exercise: Item under review: COc1ccc(C(=O)Cl)cc1I . Reported melting point?
Key: 58 °C

Exercise: Item under review: COC(=O)N[C@H](C(=O)NC(Cc1ccccc1)C(O)CNCC(O)[C@@H](Cc1ccc(OCCc2ccccn2)cc1)NC(=O)OC(C)(C)C)C(C)(C)C (relative stereo) . Reported melting point?
Key: 139 to 141 °C

Exercise: Item under review: N#Cc1ccccc1OCC1CN=C(N)O1 (centres undefined) . Reported melting point?
Key: 146 °C

Exercise: Item under review: CC(c1oc2ccccc2c(=O)c1-c1cccc(F)c1)n1cnc2c(N)ncnc21 (centres undefined) . Reported melting point?
Key: 155 to 158 °C

Exercise: Item under review: COc1c(-c2ccc3cc(NS(C)(=O)=O)ccc3c2)cc(-n2ccc(=O)[nH]c2=O)cc1C(F)(F)C(F)(F)F . Reported melting point?
Key: 162 to 165 °C

Exercise: Item under review: CC(=O)N[C@H](Cc1ccc(C#N)cc1)C(=O)O . Reported melting point?
Key: 173 to 175 °C

Exercise: Item under review: CCOC(=O)CCc1nc2cccnc2n(-c2cccc(NC(=O)Nc3ccccc3OC)c2)c1=O . Reported melting point?
Key: 175 °C

Exercise: Item under review: CCCCCCCCCCCCCCCCCCNC(=O)OCC(CNS(=O)(=O)CCCI)NC(=O)OCCCC (centres undefined) . Reported melting point?
Key: 96 to 98 °C

Exercise: Item under review: O=C(O)c1cnc(-c2nnn[nH]2)cc1C1CCCCC1 . Reported melting point?
Key: 278 °C

====

Value Kind: melting point

Exercise: Item under review: CCOC(=O)c1cnc2occ(Br)c2c1 . Reported melting point?
Key: 107 to 108 °C

Exercise: Item under review: O=C1c2ccccc2C(=O)N1c1ccc(Cl)c2c1CC(CO)O2 (stereo unspecified) . Reported melting point?
Key: 181 to 183 °C

Exercise: Item under review: CC(C)C(Nc1ccc(C(F)(F)F)cc1)C(N)=O (stereo unspecified) . Reported melting point?
Key: 93 to 94 °C

Exercise: Item under review: CCOC(=O)C1=C(N)NC(C)=C(C(=O)OC)C1c1ccccc1C#N (stereo unspecified) . Reported melting point?
Key: 224 °C

Exercise: Item under review: Oc1ccc(-c2nc3ccc(O)cc3o2)cc1 . Reported melting point?
Key: > 300 °C

Exercise: Item under review: CCN1C(=O)C(C)(C)C(=O)N(C)c2cc(CN(CCc3cccnc3)Cc3scnc3C)ccc21 . Reported melting point?
Key: 118 to 120 °C

Exercise: Item under review: CC(C)(C)c1ccn(-c2ccc(C(=O)N3Cc4cccnc4Nc4ccccc43)c(C(F)(F)F)c2)n1 . Reported melting point?
Key: 136 to 140 °C

Exercise: Item under review: Cc1nc(-c2ccc(Br)cc2)n(-c2ccc(S(C)(=O)=O)cc2)n1 . Reported melting point?
Key: 208 to 209 °C

Exercise: Item under review: CCCN1C(=O)C2(CC(C)C)CC(c3ccc(N)cc3)(C2)C1=O . Reported melting point?
Key: 86.5 to 87 °C

Exercise: Item under review: Nc1ncnc2sc(Cc3ccccc3)c(-c3ccc([N+](=O)[O-])cc3)c12 . Reported melting point?
Key: 231 to 233 °C

Exercise: Item under review: Cc1cc(C)cc(NC(=O)Cc2ccc(OC3(C(=O)O)CCOC3C)cc2)c1 (racemic) . Reported melting point?
Key: 164 to 167 °C

Exercise: Item under review: NC(=O)C1CCc2c(C(=O)c3ccccc3)cccc21 (stereo unspecified) . Reported melting point?
Key: 164 to 166 °C

Exercise: Item under review: COc1ccc2ccc(C(=O)NCc3ccccc3)c(OC(C)C)c2c1 . Reported melting point?
Key: 88 to 90 °C

Exercise: Item under review: CCc1nn2c(N)cc(C)nc2c1S(=O)(=O)c1ccc(OC)cc1 . Reported melting point?
Key: 186 to 188 °C

Exercise: Item under review: O=C(O)c1cc(C(=O)O)cc(P(=O)(O)O)c1 . Reported melting point?
Key: 360 °C

Exercise: Item under review: CC(C)Cn1c(N)nc2c(N)nc3ccccc3c21 . Reported melting point?
Key: > 250 °C

Exercise: Item under review: CN1CC(CN(CCC#N)C(N)=O)CC2c3cccc4[nH]cc(c34)CC21 (stereo unspecified) . Reported melting point?
Key: 252 to 254 °C

Exercise: Item under review: CC(=O)NC1=C(N)C(=O)c2ccccc2C1=O . Reported melting point?
Key: 233 to 234 °C

Exercise: Item under review: Nc1cc(=O)n(Cc2ccccc2F)[nH]1 . Reported melting point?
Key: 146 °C

Exercise: Item under review: COC(=O)CCCc1cc2cc(Cl)ccc2n1S(=O)(=O)c1cccc(OC)c1 . Reported melting point?
Key: 107 to 109 °C

Exercise: Item under review: CNC(=O)COc1ccc(C(=O)CN2CCN(c3ccncc3)CC2)cc1 . Reported melting point?
Key: 169 to 171 °C

Exercise: Item under review: NC(=O)c1ccc(I)c([N+](=O)[O-])c1 . Reported melting point?
Key: 152 to 155 °C

Exercise: Item under review: O=C1c2cc(S(=O)(=O)N3CCOCC3)ccc2SC12CC2 . Reported melting point?
Key: 162 to 165 °C

Exercise: Item under review: COC(=O)c1ccc(Br)cc1CSC . Reported melting point?
Key: 79.3 °C

Exercise: Item under review: CC(C)(C)C(=O)Oc1ccc(CNC(=O)c2cccnc2Oc2ccc(F)cc2)cc1 . Reported melting point?
Key: 91 to 93 °C

Exercise: Item under review: COc1cccc(Cn2c(=O)c3c(N4CCN(C)CC4)cc(Cl)cc3n(Cc3ccccc3)c2=O)c1 . Reported melting point?
Key: 98 to 110 °C

Exercise: Item under review: CCN(CC)C(=O)Cc1ccc(O)c(C(C)C)c1 . Reported melting point?
Key: 112 to 113 °C

Exercise: Item under review: Cc1c(NC(=O)c2ccc(-c3ccc(Cl)s3)cc2F)ccc2cc(CN3CCCCCC3)cnc12 . Reported melting point?
Key: 166 to 167 °C

Exercise: Item under review: CN1CCN(C(=O)c2c(N3CCN(C(=O)c4ccco4)CC3)n(-c3ccccc3)c3ccccc23)CC1 . Reported melting point?
Key: 180 to 181 °C

Exercise: Item under review: CC(=O)CC(=O)Nc1cccc(NC(C)=O)c1 . Reported melting point?
Key: 107 °C

Exercise: Item under review: ONc1cc(Cl)ccc1Cl . Reported melting point?
Key: 124 °C

Exercise: Item under review: CC1SC(=O)NN=C1c1ccc(N2CCC(N)CC2)c([N+](=O)[O-])c1 (stereo unspecified) . Reported melting point?
Key: 154 to 157 °C

Exercise: Item under review: COc1ccc([C@@H]2CN(C)CC[C@@H]2NC(=O)c2ccccc2)cc1 (relative stereo) . Reported melting point?
Key: 164 to 165 °C

Exercise: Item under review: Cc1cc2c(cc1C(F)(F)F)NCC2 . Reported melting point?
Key: 43 to 44 °C

Exercise: Item under review: CC(=O)OC1CSC(Oc2cncc(S(=O)(=O)c3ccccc3)c2)C(OC(C)=O)C1OC(C)=O (stereo unspecified) . Reported melting point?
Key: 97 to 99 °C

Exercise: Item under review: CC(=O)NC1CCc2c(C)cc(C)c(O)c21 (stereo unspecified) . Reported melting point?
Key: 131 to 132 °C

Exercise: Item under review: COc1ccc2cc(C3CCN(C[C@H](O)COc4cccc5oc(C6=NC(C)(C)CO6)cc45)CC3)ccc2c1 . Reported melting point?
Key: 133 to 134 °C

Exercise: Item under review: Cc1nc2ccccc2n1Cc1c(F)cccc1F . Reported melting point?
Key: 99 °C

Exercise: Item under review: CCN(CC)CCN1C(=O)Nc2ccccc2C1c1cccc(O)c1 (stereo unspecified) . Reported melting point?
Key: 208 to 210 °C

Exercise: Item under review: Cc1cc(-c2ccc(C(F)(F)F)cc2)cc(-c2ccnc(-c3cccc(S(N)(=O)=O)c3)c2)n1 . Reported melting point?
Key: > 250 °C

Exercise: Item under review: O=C1OC(=O)c2cc3occc3c3cccc1c23 . Reported melting point?
Key: 160 to 165 °C

Each recorded value in this set is attributed to a melting point compilation (Tetko et al.; mined from patent text by program, amines drawn as free bases though some values may be those of a salt).
